Target: T1, interleukin 18 binding protein (IL-18BP) (UniProt O95998 31-194)
T1 sequence (looked up): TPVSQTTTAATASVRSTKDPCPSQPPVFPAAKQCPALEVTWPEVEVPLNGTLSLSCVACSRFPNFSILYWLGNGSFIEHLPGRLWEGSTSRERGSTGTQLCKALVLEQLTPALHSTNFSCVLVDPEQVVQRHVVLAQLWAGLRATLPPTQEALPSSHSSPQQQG
Test: cell-based or functional assay
Endpoint name: Ratio (-BP/+BP), DF-100,000

>  <Binder>
IL-18 variant K53V, S55Q (ligand) YFGKLESKLSVIRNLNDQVLFIDQGNRPLFEDMTDSDMRDNAPRTIFIISMYVDQQPRGMAVTISVKSEKISTLSSENKIISFKEMNPPDNIKDTKSDIIFFQRSVPGHDNKMQFESSSYEGYFLASEKERDLFKLILKKEDELGDRSIMFTVQNED

>  <Reported result>
0.81

$$$$
>  <Binder>
IL-18 variant S36E, D37E, D40R, N41G, K53Y, S55F (ligand) YFGKLESKLSVIRNLNDQVLFIDQGNRPLFEDMTDEEMRRGAPRTIFIISMYYDFQPRGMAVTISVKSEKISTLSSENKIISFKEMNPPDNIKDTKSDIIFFQRSVPGHDNKMQFESSSYEGYFLASEKERDLFKLILKKEDELGDRSIMFTVQNED

>  <Reported result>
0.64

$$$$
>  <Binder>
IL-18 variant K53H, S55H, N87D, H109I (ligand) YFGKLESKLSVIRNLNDQVLFIDQGNRPLFEDMTDSDMRDNAPRTIFIISMYHDHQPRGMAVTISVKSEKISTLSSENKIISFKEMDPPDNIKDTKSDIIFFQRSVPGIDNKMQFESSSYEGYFLASEKERDLFKLILKKEDELGDRSIMFTVQNED

>  <Reported result>
0.96

$$$$
